These entries and their values trace back to patent US20220169598A1.

tested on: MV-4-11; experiment: Cytotoxicity in cell lines; type: cell-based; conditions: Homo sapiens, MV4-11, Table 4; read-out: IC50 MV-411

Compound: O=C(NO)c1ccc(CN(Cc2ccccc2)S(=O)(=O)c2cc(F)c(F)c(F)c2F)cc1
IC50 [nM]: 190

Compound: O=C(NO)c1ccc(CN(C2CC2)S(=O)(=O)c2c(F)cc(F)c(Cl)c2F)cc1
IC50 [nM]: 741

Compound: O=C(NO)c1ccc(CN(Cc2cccnc2)S(=O)(=O)c2cc(F)c(F)c(F)c2F)c(F)c1
IC50 [nM]: 607

Compound: O=C(NO)c1ccc(CN(Cc2cccnc2)S(=O)(=O)c2cc(F)c(F)c(F)c2F)c(C(F)(F)F)c1
IC50 [nM]: 3400
